Origin of the recorded values: ChEMBL document CHEMBL1146125

# Tested on: MT4
# Assay info: Antiviral activity against HIV D545701 in MT4 cells
# Format: functional, cell-based
# Measurement conditions: Homo sapiens
Attribute measured: pIC50
pIC50 here: minus log base 10 of the concentration, concentration in moles per litre.

[in] Find the recorded pIC50 belonging to CC(C)CN(C[C@@H](O)[C@H](Cc1ccc(Oc2ccccc2)cc1)NC(=O)O[C@H]1CO[C@H]2OCC[C@H]21)S(=O)(=O)c1ccc2c(c1)OCO2 and report it.
[out] 7.21

[in] What about CC(C)CN(C[C@@H](O)[C@H](Cc1ccc(Oc2ccc(CN3CCCC3)cc2)cc1)NC(=O)O[C@H]1CO[C@H]2OCC[C@H]21)S(=O)(=O)c1ccc2c(c1)OCO2 ?
[out] 7.72

[in] What about CC(C)CN(C[C@@H](O)[C@H](Cc1ccc(Oc2ccc(CO)cc2)cc1)NC(=O)O[C@H]1CO[C@H]2OCC[C@H]21)S(=O)(=O)c1ccc2c(c1)OCO2 ?
[out] 8.08

[in] What about CC(C)CN(C[C@@H](O)[C@H](Cc1ccc(Oc2ccc(CN3CCOCC3)cc2)cc1)NC(=O)O[C@H]1CO[C@H]2OCC[C@H]21)S(=O)(=O)c1ccc2c(c1)OCO2 ?
[out] 7.89

[in] What about CC(C)CN(C[C@@H](O)[C@H](Cc1ccc(OCc2ccc3ccccc3n2)cc1)NC(=O)O[C@H]1CO[C@H]2OCC[C@H]21)S(=O)(=O)c1ccc2c(c1)OCO2 ?
[out] 7.72

[in] What about CC(C)CN(C[C@@H](O)[C@H](Cc1ccc(Oc2cccc(F)c2)cc1)NC(=O)O[C@H]1CO[C@H]2OCC[C@H]21)S(=O)(=O)c1ccc2c(c1)OCO2 ?
[out] 7.32

[in] What about COC(=O)NCc1ccc(Oc2ccc(C[C@H](NC(=O)O[C@H]3CO[C@H]4OCC[C@H]43)[C@H](O)CN(CC(C)C)S(=O)(=O)c3ccc4c(c3)OCO4)cc2)cc1 ?
[out] 8.17

[in] What about CC(=O)NCc1ccc(Oc2ccc(C[C@H](NC(=O)O[C@H]3CO[C@H]4OCC[C@H]43)[C@H](O)CN(CC(C)C)S(=O)(=O)c3ccc4c(c3)OCO4)cc2)cc1 ?
[out] 8.20

[in] What about CC(C)CN(C[C@@H](O)[C@H](Cc1ccc(OCCc2ccsc2)cc1)NC(=O)O[C@H]1CO[C@H]2OCC[C@H]21)S(=O)(=O)c1ccc2c(c1)OCO2 ?
[out] 7.36

[in] What about COC(=O)N[C@H](C(=O)N[C@@H](Cc1ccccc1)[C@@H](O)CN(Cc1ccc(-c2ccccn2)cc1)NC(=O)[C@@H](NC(=O)OC)C(C)(C)C)C(C)(C)C [ATAZANAVIR] ?
[out] 7.15

* * *

# Assay info: Clearance in dog at 1 mg/kg, iv
# Type: ADME, organism-based, Canis lupus familiaris
# Design: dose 1 mg/kg, route intravenous
# Measurement conditions: in vivo
Please provide measured clearance for the entries that follow.
Answer in mL/min/kg, number only, no unit symbol.

[in] Find the recorded clearance belonging to Cc1nc(COc2ccc(C[C@H](NC(=O)O[C@H]3CO[C@H]4OCC[C@H]43)[C@H](O)CN(CC(C)C)S(=O)(=O)c3ccc4c(c3)OCO4)cc2)cs1 [BRECANAVIR] and report it.
[out] 19

[in] What about CC(C)CN(C[C@@H](O)[C@H](Cc1ccc(OCCc2cccs2)cc1)NC(=O)O[C@H]1CO[C@H]2OCC[C@H]21)S(=O)(=O)c1ccc2c(c1)OCO2 ?
[out] 22

* * *

# Test system: MT4
# Assay info: Antiviral activity against HIV1 EP13 in MT4 cells
# Assay type: functional, cell-based
# Measurement conditions: Homo sapiens
Attribute measured: log10 of IC50 (log10 of the value in nM)
Plainly stated, the numbers are log10 of IC50 given in nM.

[in] Find the recorded log10 of IC50 belonging to CC(C)CN(C[C@@H](O)[C@H](Cc1ccc(OCc2ccc3ccccc3n2)cc1)NC(=O)O[C@H]1CO[C@H]2OCC[C@H]21)S(=O)(=O)c1ccc2c(c1)OCO2 and report it.
[out] 0.72

[in] What about CC(C)CN(C[C@@H](O)[C@H](Cc1ccc(OCc2nccs2)cc1)NC(=O)O[C@H]1CO[C@H]2OCC[C@H]21)S(=O)(=O)c1ccc2c(c1)OCO2 ?
[out] 0.18

[in] What about Cc1cccc(C)c1OCC(=O)N[C@@H](Cc1ccccc1)[C@@H](O)C[C@H](Cc1ccccc1)NC(=O)[C@H](C(C)C)N1CCCNC1=O [LOPINAVIR] ?
[out] 2.60

[in] What about CC(C)CN(C[C@@H](O)[C@H](Cc1ccc(Oc2ccc(CO)cc2)cc1)NC(=O)O[C@H]1CO[C@H]2OCC[C@H]21)S(=O)(=O)c1ccc2c(c1)OCO2 ?
[out] 0.20

[in] What about COC(=O)NCc1ccc(Oc2ccc(C[C@H](NC(=O)O[C@H]3CO[C@H]4OCC[C@H]43)[C@H](O)CN(CC(C)C)S(=O)(=O)c3ccc4c(c3)OCO4)cc2)cc1 ?
[out] 0.34

[in] What about CC(C)CN(C[C@@H](O)[C@H](Cc1ccc(OCc2cccc(C#N)c2)cc1)NC(=O)O[C@H]1CO[C@H]2OCC[C@H]21)S(=O)(=O)c1ccc2c(c1)OCO2 ?
[out] 0.34

[in] What about CC(C)CN(C[C@@H](O)[C@H](Cc1ccc(Oc2ccncn2)cc1)NC(=O)O[C@H]1CO[C@H]2OCC[C@H]21)S(=O)(=O)c1ccc2c(c1)OCO2 ?
[out] 0.45

* * *

# System: MT4
# Assay info: Antiviral activity against HIV D545701 in MT4 cells
# Assay type: functional, cell-based
# Measurement conditions: Homo sapiens
pIC50: −log10 of the molar value.
Criterion: pIC50 meeting or surpassing 7. Met: true. Not met: false.

[in] Please tell me: is the molecule CC(C)CN(C[C@@H](O)[C@H](Cc1ccc(OCc2nccs2)cc1)NC(=O)O[C@H]1CO[C@H]2OCC[C@H]21)S(=O)(=O)c1ccc2c(c1)OCO2 at or over 7 in terms of pIC50?
[out] true

[in] What about COc1cccc(Oc2ccc(C[C@H](NC(=O)O[C@H]3CO[C@H]4OCC[C@H]43)[C@H](O)CN(CC(C)C)S(=O)(=O)c3ccc4c(c3)OCO4)cc2)c1 ?
[out] true

[in] What about CC(C)CN(C[C@@H](O)[C@H](Cc1ccc(Oc2cccnc2)cc1)NC(=O)O[C@H]1CO[C@H]2OCC[C@H]21)S(=O)(=O)c1ccc2c(c1)OCO2 ?
[out] true

[in] What about CC(C)CN(C[C@@H](O)[C@H](Cc1ccccc1)NC(=O)O[C@H]1CO[C@H]2OCC[C@H]21)S(=O)(=O)c1ccc(N)cc1 ?
[out] true

[in] What about CC(C)(C)NC(=O)[C@@H]1C[C@@H]2CCCC[C@@H]2CN1C[C@@H](O)[C@H](Cc1ccccc1)NC(=O)[C@H](CC(N)=O)NC(=O)c1ccc2ccccc2n1 ?
[out] false

[in] What about Cc1c(O)cccc1C(=O)N[C@@H](CSc1ccccc1)[C@H](O)CN1C[C@H]2CCCC[C@H]2C[C@H]1C(=O)NC(C)(C)C ?
[out] false

* * *

# Assay info: Half life in dog at 1 mg/kg co-administered with 4 mg/kg ritonavir
# Assay type: ADME, organism-based, Canis lupus familiaris
# Measurement conditions: in vivo
Attribute measured: half-life (h)
Answer in h, number only, no unit symbol.

[in] Find the recorded half-life belonging to Cc1nc(COc2ccc(C[C@H](NC(=O)O[C@H]3CO[C@H]4OCC[C@H]43)[C@H](O)CN(CC(C)C)S(=O)(=O)c3ccc4c(c3)OCO4)cc2)cs1 and report it.
[out] 1.2

* * *

# Test system: MT4
# Assay info: Antiviral activity against HIV1 I50V in MT4 cells
# Type: functional, cell-based
# Measurement conditions: Homo sapiens
Attribute measured: pIC50
pIC50 here: minus log base 10 of the concentration, concentration in moles per litre.

[in] Find the recorded pIC50 belonging to Cc1nc(COc2ccc(C[C@H](NC(=O)O[C@H]3CO[C@H]4OCC[C@H]43)[C@H](O)CN(CC(C)C)S(=O)(=O)c3ccc4c(c3)OCO4)cc2)cs1 and report it.
[out] 8.80

* * *

# Test system: MT4
# Assay info: Antiviral activity against HIV1 EP13 in MT4 cells
# Format: functional, cell-based
# Measurement conditions: Homo sapiens
Attribute measured: IC50 (nM)
Answer in nM, number only, no unit symbol.

[in] Hi! What's the reported IC50 for CC(=O)NCc1ccc(Oc2ccc(C[C@H](NC(=O)O[C@H]3CO[C@H]4OCC[C@H]43)[C@H](O)CN(CC(C)C)S(=O)(=O)c3ccc4c(c3)OCO4)cc2)cc1 on MT4?
[out] 3.4

[in] What about COc1ccc(Oc2ccc(C[C@H](NC(=O)O[C@H]3CO[C@H]4OCC[C@H]43)[C@H](O)CN(CC(C)C)S(=O)(=O)c3ccc4c(c3)OCO4)cc2)cc1 ?
[out] 6.9

[in] What about CC(C)CN(C[C@@H](O)[C@H](Cc1ccc(OCc2ccccn2)cc1)NC(=O)O[C@H]1CO[C@H]2OCC[C@H]21)S(=O)(=O)c1ccc2c(c1)OCO2 ?
[out] 1.2

[in] What about CC(C)CN(C[C@@H](O)[C@H](Cc1ccccc1)NC(=O)O[C@H]1CO[C@H]2OCC[C@H]21)S(=O)(=O)c1ccc(N)cc1 ?
[out] 6.8

[in] What about CC(C)CN(C[C@@H](O)[C@H](Cc1ccc(OCCn2cncn2)cc1)NC(=O)O[C@H]1CO[C@H]2OCC[C@H]21)S(=O)(=O)c1ccc2c(c1)OCO2 ?
[out] 8.3

[in] What about CC(C)CN(C[C@@H](O)[C@H](Cc1ccc(OCCc2cccs2)cc1)NC(=O)O[C@H]1CO[C@H]2OCC[C@H]21)S(=O)(=O)c1ccc2c(c1)OCO2 ?
[out] 3.4

[in] What about CC(C)CN(C[C@@H](O)[C@H](Cc1ccc(Oc2ccccc2)cc1)NC(=O)O[C@H]1CO[C@H]2OCC[C@H]21)S(=O)(=O)c1ccc2c(c1)OCO2 ?
[out] 21

[in] What about Cc1nc(COc2ccc(C[C@H](NC(=O)O[C@H]3CO[C@H]4OCC[C@H]43)[C@H](O)CN(CC(C)C)S(=O)(=O)c3ccc4c(c3)OCO4)cc2)cs1 ?
[out] 1.1

[in] What about CC(C)CN(C[C@@H](O)[C@H](Cc1ccc(OCc2cscn2)cc1)NC(=O)O[C@H]1CO[C@H]2OCC[C@H]21)S(=O)(=O)c1ccc2c(c1)OCO2 ?
[out] 1.2

[in] What about CC(C)CN(C[C@@H](O)[C@H](Cc1ccc(OCc2cncs2)cc1)NC(=O)O[C@H]1CO[C@H]2OCC[C@H]21)S(=O)(=O)c1ccc2c(c1)OCO2 ?
[out] 2.5

[in] What about CC(C)CN(C[C@@H](O)[C@H](Cc1ccc(OCc2ccccc2)cc1)NC(=O)O[C@H]1CO[C@H]2OCC[C@H]21)S(=O)(=O)c1ccc2c(c1)OCO2 ?
[out] 5.9

[in] What about CC(C)CN(C[C@@H](O)[C@H](Cc1ccc(OCCc2ccccc2)cc1)NC(=O)O[C@H]1CO[C@H]2OCC[C@H]21)S(=O)(=O)c1ccc2c(c1)OCO2 ?
[out] 8.7

[in] What about CC(C)CN(C[C@@H](O)[C@H](Cc1ccc(Oc2ccc(CN3CCOCC3)cc2)cc1)NC(=O)O[C@H]1CO[C@H]2OCC[C@H]21)S(=O)(=O)c1ccc2c(c1)OCO2 ?
[out] 2.9

[in] What about CC(C)CN(C[C@@H](O)[C@H](Cc1ccc(OCc2ncc[nH]2)cc1)NC(=O)O[C@H]1CO[C@H]2OCC[C@H]21)S(=O)(=O)c1ccc2c(c1)OCO2 ?
[out] 20

[in] What about CC(C)CN(C[C@@H](O)[C@H](Cc1ccc(Oc2cccnc2)cc1)NC(=O)O[C@H]1CO[C@H]2OCC[C@H]21)S(=O)(=O)c1ccc2c(c1)OCO2 ?
[out] 2.4

[in] What about CC(C)CN(C[C@@H](O)[C@H](Cc1ccc(OCCc2ccsc2)cc1)NC(=O)O[C@H]1CO[C@H]2OCC[C@H]21)S(=O)(=O)c1ccc2c(c1)OCO2 ?
[out] 17

[in] What about CC(C)CN(C[C@@H](O)[C@H](Cc1ccc(Oc2cccc(F)c2)cc1)NC(=O)O[C@H]1CO[C@H]2OCC[C@H]21)S(=O)(=O)c1ccc2c(c1)OCO2 ?
[out] 17

[in] What about CC(C)CN(C[C@@H](O)[C@H](Cc1ccc(Oc2ccc(CN3CCCC3)cc2)cc1)NC(=O)O[C@H]1CO[C@H]2OCC[C@H]21)S(=O)(=O)c1ccc2c(c1)OCO2 ?
[out] 4.6

[in] What about CC(C)CN(C[C@@H](O)[C@H](Cc1ccc(OCc2ccc3ccccc3c2)cc1)NC(=O)O[C@H]1CO[C@H]2OCC[C@H]21)S(=O)(=O)c1ccc2c(c1)OCO2 ?
[out] 30

[in] What about CC(C)(C)NC(=O)[C@@H]1C[C@@H]2CCCC[C@@H]2CN1C[C@@H](O)[C@H](Cc1ccccc1)NC(=O)[C@H](CC(N)=O)NC(=O)c1ccc2ccccc2n1 ?
[out] 80

[in] What about COc1cccc(Oc2ccc(C[C@H](NC(=O)O[C@H]3CO[C@H]4OCC[C@H]43)[C@H](O)CN(CC(C)C)S(=O)(=O)c3ccc4c(c3)OCO4)cc2)c1 ?
[out] 16
